Would you mind telling me the reported Kd of each entry?
Express it in µM; write the number only.

Recorded Kd for CC(=O)NC1C(O)OC(CO)C(O)C1OC1OC(CO)C(O)C(O)C1OC1OC(C)C(O)C(O)C1O (centres unmarked) with VP8* P[8]Wa (lineage I) (Rotavirus A, UniProt P11193), please?
80.2

Recorded Kd for CC(=O)NC1C(O)OC(CO)C(O)C1OC1OC(CO)C(O)C(O)C1O (centres unmarked) with VP8* P[8]Wa (lineage I) (Rotavirus A, UniProt P11193), please?
66.5

###

- Target: VP8* P[8]c (clinical isolate, lineage III) (Rotavirus A)
- Sequence (A0A0S0VKY7 1-161): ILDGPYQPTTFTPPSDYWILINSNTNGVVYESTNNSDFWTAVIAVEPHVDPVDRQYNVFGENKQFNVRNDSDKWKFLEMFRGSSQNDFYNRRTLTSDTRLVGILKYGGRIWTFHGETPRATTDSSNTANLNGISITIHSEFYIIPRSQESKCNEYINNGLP
- Assay notes: SPR apparent affinity of VP8* for immobilized HBGAs
- Condition notes: PAA-biotin glycan immobilized on SA chip, VP8* as analyte, 10°C, ± standard deviation, read-out: Kda (apparent affinity constant)
Assay readout: Kd (µM)
Express it in µM; write the number only.

Recorded Kd for CC(=O)NC1C(O)OC(CO)C(O)C1OC1OC(CO)C(O)C(O)C1OC1OC(C)C(O)C(O)C1O (stereo not drawn) [H1, Fuc-α1,2-Gal-β1,3-GlcNAc] with VP8* P[8]c (clinical isolate, lineage III) (Rotavirus A), please?
27.9

Recorded Kd for CC(=O)NC1C(O)OC(CO)C(O)C1OC1OC(CO)C(O)C(O)C1O (stereo not drawn) [LNB, Gal-β1,3-GlcNAc] with VP8* P[8]c (clinical isolate, lineage III) (Rotavirus A), please?
52.1

###

Would you mind telling me the reported pKd of each entry?
- Target: P[8]c M4(Ile173Val) VP8* (Rotavirus A, UniProt A0A0S0VKY7, I110V)
- Sequence (A0A0S0VKY7 1-161 I110V): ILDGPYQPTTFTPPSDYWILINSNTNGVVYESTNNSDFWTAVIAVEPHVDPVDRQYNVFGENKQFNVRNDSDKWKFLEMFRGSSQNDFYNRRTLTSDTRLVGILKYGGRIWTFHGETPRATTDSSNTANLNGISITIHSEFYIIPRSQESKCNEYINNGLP
- Assay notes: SPR apparent affinity of VP8* for immobilized HBGAs
- Condition notes: PAA-biotin glycan immobilized on SA chip, VP8* as analyte, 10°C, ± standard deviation, read-out: Kda (apparent affinity constant)
- Method: Selected residues in the GST::VP8* P[8] were replaced for alanine or valine according to the structural data of the LNB binding site. […] The affinity assays were based on SPR and performed in a Biacore T100 instrument (GE Healthcare). […] Since multivalent oligosaccharides are immobilized on a sensor chip surface, avidity and rebinding effects can take place and apparent affinity constants (Kda) are calculated with this experimental setup. […]
As a rule, pKd stands for the negative log10 of the concentration, concentration in M.

Recorded pKd for CC(=O)NC1C(O)OC(CO)C(O)C1OC1OC(CO)C(O)C(O)C1O (centres unmarked) with P[8]c M4(Ile173Val) VP8* (Rotavirus A, UniProt A0A0S0VKY7, I110V), please?
4.31

Recorded pKd for CC(=O)NC1C(O)OC(CO)C(O)C1OC1OC(CO)C(O)C(O)C1OC1OC(C)C(O)C(O)C1O (centres unmarked) with P[8]c M4(Ile173Val) VP8* (Rotavirus A, UniProt A0A0S0VKY7, I110V), please?
4.41
